- target or system: thrombin (Homo sapiens)
- experiment: Thrombin inhibition IC50 (Table 3)
- Format: biochemical
- test conditions: Table 3, AYA1809002
observed property: IC50

Checklist item: IC50 tested on thrombin (Homo sapiens), entry AYA1809002: ssDNA thrombin aptamer GCGGTGTTGCTGGGGTTGGGAGGTTGGAGGAAGCAATCGC , value?
≤ 0.5 nM
